Numbers sourced from patent US8410309B2.

# experiment description: Low molecular weight heparin (LMWH) oral/intracolonic delivery, plasma LMWH by anti-Factor Xa assay
# Type: in vivo, Sprague-Dawley rats
# condition details: IC, rats; delivery agent compound 50 mg/kg, LMWH 750 IU/kg, 1 ml/kg
readout type: Mean Peak Plasma LMWH Concentration ± SD (IU/ml)

molecular_string=Nc1ccccc1OCCCCCCCC(=O)O readout_type="Mean Peak Plasma LMWH Concentration ± SD" unit=IU/ml numeric_readout=0.65
molecular_string=CC(=O)c1ccccc1OCCCCCCCCCC(=O)O readout_type="Mean Peak Plasma LMWH Concentration ± SD" unit=IU/ml numeric_readout=3.046
molecular_string=O=C(O)c1ccc(COc2ccccc2O)cc1 readout_type="Mean Peak Plasma LMWH Concentration ± SD" unit=IU/ml numeric_readout=1.038
molecular_string=CCC(=O)c1ccccc1OCCCCCC(=O)O readout_type="Mean Peak Plasma LMWH Concentration ± SD" unit=IU/ml numeric_readout=1.622
molecular_string=CC(=O)c1ccccc1OCCCCCC(=O)O readout_type="Mean Peak Plasma LMWH Concentration ± SD" unit=IU/ml numeric_readout=0.91
molecular_string=CC(=O)c1ccccc1OCCCCC(=O)O readout_type="Mean Peak Plasma LMWH Concentration ± SD" unit=IU/ml numeric_readout=0.088
molecular_string=CCC(=O)c1ccccc1OCCCC(=O)O readout_type="Mean Peak Plasma LMWH Concentration ± SD" unit=IU/ml numeric_readout=0.262
molecular_string=O=C(O)CCCCCCCOc1ccccc1C(=O)O readout_type="Mean Peak Plasma LMWH Concentration ± SD" unit=IU/ml numeric_readout=0.07
molecular_string=CC(=O)c1ccccc1OCCCC(=O)O readout_type="Mean Peak Plasma LMWH Concentration ± SD" unit=IU/ml numeric_readout=0.474
molecular_string=Nc1cc(Cl)ccc1OCCCCCCCC(=O)O readout_type="Mean Peak Plasma LMWH Concentration ± SD" unit=IU/ml numeric_readout=1.842
molecular_string=CCC(=O)c1ccccc1OCCCCCCCC(=O)O readout_type="Mean Peak Plasma LMWH Concentration ± SD" unit=IU/ml numeric_readout=1.64
